- method: Protein binding in human plasma assessed as free fraction at 5 uM incubated for 18 hrs by LC-MS/MS analysis
- Format: ADME, cell-free
reported-property: fraction unbound at 18 h, 5 µM
Number only, no unit.

// query Which fraction unbound at 18 h, 5 µM is listed for CN1CCN([C@@H]2CCCN(c3cnc(C(N)=O)c(Nc4ccc(C5CCN(CC6CCN(c7ccc(C(=O)N[C@H]8CCC(=O)NC8=O)nc7)CC6)CC5)cc4)n3)C2)C1=O [NX-5948] ?
// result 0.024

// query Which fraction unbound at 18 h, 5 µM is listed for `Cn1c(=O)n([C@H]2CCC(=O)NC2=O)c2cccc(C#CCOC3CCN(C[C@H]4CC[C@H](n5cc(NC(=O)c6cnn7ccc(N8C[C@H]9C[C@@H]8CO9)nc67)c(C(F)F)n5)CC4)CC3)c21` ?
// result 0.022

###

- method: Solubility of compound in SGF at pH 1.2 measured after 24 hrs by UPLC analysis
- Assay type: physicochemical
reported-property: solubility at 24 h (µg/mL)
Your answer is read as µg/mL, so omit the unit and give the number.

// query Which solubility at 24 h is listed for COc1cc(O[C@H]2C(C)(C)[C@H](NC(=O)c3ccc(N4CCC(CN5CCN(c6ccc(C(=O)N[C@H]7CCC(=O)NC7=O)c(F)c6)CC5)CC4)cc3)C2(C)C)ccc1C#N [LUXDEGALUTAMIDE] ?
// result 188

// query Which solubility at 24 h is listed for `Cn1c(=O)n([C@H]2CCC(=O)NC2=O)c2cccc(C#CCOC3CCN(C[C@H]4CC[C@H](n5cc(NC(=O)c6cnn7ccc(N8C[C@H]9C[C@@H]8CO9)nc67)c(C(F)F)n5)CC4)CC3)c21` ?
// result 4.1

// query Which solubility at 24 h is listed for CN1CCN([C@@H]2CCCN(c3cnc(C(N)=O)c(Nc4ccc(C5CCN(CC6CCN(c7ccc(C(=O)N[C@H]8CCC(=O)NC8=O)nc7)CC6)CC5)cc4)n3)C2)C1=O [NX-5948] ?
// result 559

// query Which solubility at 24 h is listed for CCc1cc(N2C(=S)N(c3ccc(C#N)c(C(F)(F)F)c3)C(=O)C2(C)C)ccc1OCCN1CCN(CC(=O)Nc2cccc(NC3CCC(=O)NC3=O)c2)[C@H](C)C1 (stereo partly specified) ?
// result 16

// query Which solubility at 24 h is listed for O=C1CC[C@H](N2Cc3cc(N4CCN(CC5CCN(c6ccc([C@@H]7c8ccc(O)cc8CC[C@@H]7c7ccccc7)cc6)CC5)CC4)ccc3C2=O)C(=O)N1 [VEPDEGESTRANT] ?
// result 230

// query Which solubility at 24 h is listed for `N#Cc1ccc(O[C@H]2CC[C@H](NC(=O)c3ccc(N4CCC(CN5CCN(c6cc7c(cc6F)C(=O)N([C@H]6CCC(=O)NC6=O)C7=O)CC5)CC4)nn3)CC2)cc1Cl` ?
// result 230

###

- method: Protein binding in rat hepatocytes assessed as free fraction at 5 uM incubated for 18 hrs by LC-MS/MS analysis
- Format: ADME, cell-based, Hepatocyte
Give fraction unbound at 18 h, 5 µM for every item shown.
Number only, no unit.

// query Which fraction unbound at 18 h, 5 µM is listed for `COc1cc(-c2cn(C)c(=O)c3cnc(N4CCC4)cc23)cc(OC)c1CN1CCC(CN2CCC3(CC2)CN(c2ccc4c(c2)C(=O)N([C@H]2CCC(=O)NC2=O)C4)C3)CC1` ?
// result 0.35

// query Which fraction unbound at 18 h, 5 µM is listed for CNC(=O)COc1cc2cc(Nc3nc(N4CCC(O[C@H]5C[C@H](N6CCC(c7ccc8c(c7F)CN(C7CCC(=O)NC7=O)C8=O)CC6)C5)CC4)ncc3Cl)ccc2n(C(C)C)c1=O (stereo partly drawn) ?
// result 0.016

###

- method: Intrinsic clearance in monkey hepatocytes measured per million cells at 1 uM measured for 0.5 to 120 mins by LC-MS/MS analysis
- Type: ADME, cell-based, Macaca mulatta, Hepatocyte
- test-parameters: rhesus monkey, time 0.5-120 min, read-out: CLH
Give hepatocyte CLint at 1 µM for every item shown.

// query Which hepatocyte CLint at 1 µM is listed for COc1cc(O[C@H]2C(C)(C)[C@H](NC(=O)c3ccc(N4CCC(CN5CCN(c6ccc(C(=O)N[C@H]7CCC(=O)NC7=O)c(F)c6)CC5)CC4)cc3)C2(C)C)ccc1C#N [LUXDEGALUTAMIDE] ?
// result 4 µL/min/1e6 cells

// query Which hepatocyte CLint at 1 µM is listed for `Cn1c(=O)n([C@H]2CCC(=O)NC2=O)c2cccc(C#CCOC3CCN(C[C@H]4CC[C@H](n5cc(NC(=O)c6cnn7ccc(N8C[C@H]9C[C@@H]8CO9)nc67)c(C(F)F)n5)CC4)CC3)c21` ?
// result 10 µL/min/1e6 cells

// query Which hepatocyte CLint at 1 µM is listed for `Cc1ncsc1-c1ccc([C@H](C)NC(=O)[C@@H]2C[C@@H](O)CN2C(=O)[C@@H](NC(=O)CCCCCC(=O)N2CCN(CC[C@H](CSc3ccccc3)Nc3ccc(S(=O)(=O)NC(=O)c4ccc(N5CCN(CC6=C(c7ccc(Cl)cc7)CCC(C)(C)C6)CC5)cc4)cc3S(=O)(=O)C(F)(F)F)CC2)C(C)(C)C)cc1` ?
// result ≤ 1 µL/min/1e6 cells

// query Which hepatocyte CLint at 1 µM is listed for `CN1CCN([C@@H]2CCCN(c3cnc(C(N)=O)c(Nc4ccc(C5CCN(CC6CCN(c7ccc(C(=O)N[C@H]8CCC(=O)NC8=O)nc7)CC6)CC5)cc4)n3)C2)C1=O` ?
// result 16 µL/min/1e6 cells

// query Which hepatocyte CLint at 1 µM is listed for NC(=O)c1ncc(N2CCCCC2)nc1Nc1ccc(C2CCN(C[C@@H]3CCN(c4ccc5c(c4)C(=O)N(C4CCC(=O)NC4=O)C5=O)C3)CC2)cc1 (some centres not stated) ?
// result 6 µL/min/1e6 cells

// query Which hepatocyte CLint at 1 µM is listed for `N#Cc1ccc(O[C@H]2CC[C@H](NC(=O)c3ccc(N4CCC(CN5CCN(c6cc7c(cc6F)C(=O)N([C@H]6CCC(=O)NC6=O)C7=O)CC5)CC4)nn3)CC2)cc1Cl` ?
// result 5 µL/min/1e6 cells

// query Which hepatocyte CLint at 1 µM is listed for CCc1cc(N2C(=S)N(c3ccc(C#N)c(C(F)(F)F)c3)C(=O)C2(C)C)ccc1OCCN1CCN(CC(=O)Nc2cccc(NC3CCC(=O)NC3=O)c2)[C@H](C)C1 (some centres not stated) ?
// result 5 µL/min/1e6 cells

###

- method: Lipophilicity, LogD of compound by Chromatography
- Type: physicochemical
Assign satisfied to entries whose chromatographic logD meets or exceeds 5; assign not satisfied to the rest.

// query In plain terms: is recorded chromatographic logD at least 5 for CN1CCN([C@@H]2CCCN(c3cnc(C(N)=O)c(Nc4ccc(C5CCN(CC6CCN(c7ccc(C(=O)N[C@H]8CCC(=O)NC8=O)nc7)CC6)CC5)cc4)n3)C2)C1=O [NX-5948] ?
// result not satisfied

// query In plain terms: is recorded chromatographic logD at least 5 for O=C1CC[C@H](N2Cc3cc(N4CCN(CC5CCN(c6ccc([C@@H]7c8ccc(O)cc8CC[C@@H]7c7ccccc7)cc6)CC5)CC4)ccc3C2=O)C(=O)N1 [VEPDEGESTRANT] ?
// result satisfied

// query In plain terms: is recorded chromatographic logD at least 5 for CCc1cc(N2C(=S)N(c3ccc(C#N)c(C(F)(F)F)c3)C(=O)C2(C)C)ccc1OCCN1CCN(CC(=O)Nc2cccc(NC3CCC(=O)NC3=O)c2)[C@H](C)C1 (stereo not given in full) ?
// result satisfied

// query In plain terms: is recorded chromatographic logD at least 5 for `COc1cc(-c2cn(C)c(=O)c3cnc(N4CCC4)cc23)cc(OC)c1CN1CCC(CN2CCC3(CC2)CN(c2ccc4c(c2)C(=O)N([C@H]2CCC(=O)NC2=O)C4)C3)CC1` ?
// result not satisfied

###

- method: Stability in human plasma at 5 uM incubated for 18 hrs by LC-MS/MS analysis
- Assay type: ADME, cell-free
- test-parameters: read-out: Stability
Under this convention, met denotes remaining at 18 h, 5 µM strictly below 70% and not met denotes remaining at 18 h, 5 µM at or above 70%.

// query Bench note: check whether COc1cc(O[C@H]2C(C)(C)[C@H](NC(=O)c3ccc(N4CCC(CN5CCN(c6ccc(C(=O)N[C@H]7CCC(=O)NC7=O)c(F)c6)CC5)CC4)cc3)C2(C)C)ccc1C#N [LUXDEGALUTAMIDE] shows remaining at 18 h, 5 µM below 70%
// result not met

// query Bench note: check whether `N#Cc1ccc(O[C@H]2CC[C@H](NC(=O)c3ccc(N4CCC(CN5CCN(c6cc7c(cc6F)C(=O)N([C@H]6CCC(=O)NC6=O)C7=O)CC5)CC4)nn3)CC2)cc1Cl` shows remaining at 18 h, 5 µM below 70%
// result met

// query Bench note: check whether `COc1cc(-c2cn(C)c(=O)c3cnc(N4CCC4)cc23)cc(OC)c1CN1CCC(CN2CCC3(CC2)CN(c2ccc4c(c2)C(=O)N([C@H]2CCC(=O)NC2=O)C4)C3)CC1` shows remaining at 18 h, 5 µM below 70%
// result not met

// query Bench note: check whether CN1CCN([C@@H]2CCCN(c3cnc(C(N)=O)c(Nc4ccc(C5CCN(CC6CCN(c7ccc(C(=O)N[C@H]8CCC(=O)NC8=O)nc7)CC6)CC5)cc4)n3)C2)C1=O [NX-5948] shows remaining at 18 h, 5 µM below 70%
// result met

// query Bench note: check whether NC(=O)c1ncc(N2CCCCC2)nc1Nc1ccc(C2CCN(C[C@@H]3CCN(c4ccc5c(c4)C(=O)N(C4CCC(=O)NC4=O)C5=O)C3)CC2)cc1 (stereo not given in full) shows remaining at 18 h, 5 µM below 70%
// result not met

// query Bench note: check whether Cc1ncsc1-c1ccc([C@H](C)NC(=O)[C@@H]2C[C@@H](O)CN2C(=O)[C@@H](NC(=O)CCCCCC(=O)N2CCN(CC[C@H](CSc3ccccc3)Nc3ccc(S(=O)(=O)NC(=O)c4ccc(N5CCN(CC6=C(c7ccc(Cl)cc7)CCC(C)(C)C6)CC5)cc4)cc3S(=O)(=O)C(F)(F)F)CC2)C(C)(C)C)cc1 [DT-2216] shows remaining at 18 h, 5 µM below 70%
// result not met

// query Bench note: check whether CNC(=O)COc1cc2cc(Nc3nc(N4CCC(O[C@H]5C[C@H](N6CCC(c7ccc8c(c7F)CN(C7CCC(=O)NC7=O)C8=O)CC6)C5)CC4)ncc3Cl)ccc2n(C(C)C)c1=O (stereo not given in full) shows remaining at 18 h, 5 µM below 70%
// result met

// query Bench note: check whether O=C1CC[C@H](N2Cc3cc(N4CCN(CC5CCN(c6ccc([C@@H]7c8ccc(O)cc8CC[C@@H]7c7ccccc7)cc6)CC5)CC4)ccc3C2=O)C(=O)N1 [VEPDEGESTRANT] shows remaining at 18 h, 5 µM below 70%
// result not met
